Test system: A549/ATCC NSCLC
method: NCI-60 one-dose screen, 48 h (100 = growth as untreated, 0 = no growth, -100 = all killed)
reported.conditions: 10 µM unless noted
Compounds without any hit were thinned out: in the full panel of roughly 83,000, 20% have a hit.
Class assignment keyed on growth, ranges class 1: < 60%; class 2: ≥ 60% and < 90%; class 3: ≥ 90%

Completed entries (count: 3):
| compound | assigned.label |
| --- | --- |
| NS(=O)(=O)c1ccc(Nc2nc(N/N=C/c3ccccn3)nc(Nc3ccccc3)n2)cc1 | class 1 |
| CCO/C=N/C1=C(C#N)C(c2ccc(F)cc2)c2sc3c(C)cccc3c2O1 (stereo not given) | class 1 |
| CCCCCc1ccc(S(=O)(=O)Nc2cccc(-c3csc(NC(=O)CN4CCN(CCO)CC4)n3)c2)cc1 | class 2 |

Class? Entry: CC(=O)c1ccc(Nc2nc(SCC(C)C)nc(-c3ccccc3)c2C#N)cc1
class 3

Class? Entry: COc1ccc(S(=O)(=O)NCCCNc2nccc(-c3cn(C(C)(C)C)nc3-c3ccc(Cl)c(OC)c3)n2)cc1
class 2

Class? Entry: CC(C)(C)c1ccc(-c2nnc(-c3nc4ccccc4nc3Cl)o2)cc1
class 3

Class? Entry: Cc1ccc(C2=NN(C)C(=O)C3(CCCC3)C2)cc1
class 3

Class? Entry: c1n[nH]cc1-c1nc2ccc3[nH]ncc3c2c2c1CCCC2
class 1

###

System: MOLT-4 leukemia
method: NCI-60 one-dose screen, 48 h (100 = growth as untreated, 0 = no growth, -100 = all killed)
reported.conditions: 10 µM unless noted
Compounds without any hit were thinned out: in the full panel of roughly 83,000, 20% have a hit.
measurement.type: growth (%)
Answers are plain numbers, in %.

Worked examples, 10 compounds total:
| compound | study.target | growth (%) |
| --- | --- | --- |
| O=C(CN1CCN(c2cc(=O)n(-c3ccccc3)c3ccccc23)CC1)Nc1cccc(C(F)(F)F)c1 | MOLT-4 leukemia | 34.8 |
| COC(=O)C[Se]C(=O)Cc1c(C)n(C(=O)c2ccc(Cl)cc2)c2ccc(OC)cc12 | MOLT-4 leukemia | 67.1 |
| N/C(=N\C(N)=N\c1nc2ccccc2s1)c1ccc2ccccc2c1 | MOLT-4 leukemia | 60.6 |
| CC(=O)N1N=C(c2cccc(-n3cccc3)c2)CC1c1cccc(F)c1 (configuration not stated) | MOLT-4 leukemia | 90.3 |
| O=C(c1ccc(O)cc1)[C@@H]1CN[C@@]2(C(=O)Nc3ccccc32)[C@H]1c1ccc(F)cc1 | MOLT-4 leukemia | 90.5 |
| O=C(c1ccc(Cl)cc1)C1[C@H](c2ccc(Cl)cc2)[C@@H](c2ccccc2)NC12C(=O)Nc1ccccc12 (some centres not stated) | MOLT-4 leukemia | 21.1 |
| COc1ccc(-n2c(SCc3nnc(NC(=O)c4ccc(Br)cc4)s3)nc3cc(OC)c(OC)cc3c2=O)cc1 | MOLT-4 leukemia | 105 |
| O=C(Cn1cc(-c2ccccc2)nn1)Nc1nc(-c2ccc(Cl)cc2)cs1 | MOLT-4 leukemia | 97.8 |
| Clc1nc2ccccc2nc1-c1nnc(C2CCCCC2)o1 | MOLT-4 leukemia | 109 |
| N#Cc1c(-c2cccs2)cc(-c2cnccn2)nc1SCC(=O)c1ccc(F)cc1 | MOLT-4 leukemia | 92.7 |

Give growth for each listed item.
1. COC(=O)c1ccc(NC2=C/C(=N/S(=O)(=O)c3ccc(C(=O)O)cc3)c3ccccc3C2=O)cc1
2. Cc1occc1-c1nc2s/c(=C/c3ccc(-c4cc(C(F)(F)F)ccc4Cl)o3)c(=O)n2n1
3. CCN1CCN(Cc2ccc(C(=O)Nc3ccc(C)c(Oc4ccc(-c5[nH]nc6ncnc(N)c56)cc4)c3)cc2C(F)(F)F)CC1
4. Brc1ccccc1/C=N/Nc1nc(N/N=C/c2ccccc2Br)nc(N2CCOCC2)n1
5. CCO/C=N/C1=C(C#N)C(c2ccc(OC)cc2)c2sc3c(C)cccc3c2O1 (configuration not stated)

1: -15; 2: 113; 3: 67.4; 4: 72.6; 5: 16.4

Give growth for each listed item.
1. Cc1cc(C)cc(C(=O)Nc2cccc(C#Cc3cccc4[nH]nc(N)c34)c2)c1
2. CNC(=O)c1c(NC(=O)c2cccc(C(F)(F)F)c2F)sc2c1CCC(=O)C2

[27, 7.37]

###

Tested on: CCRF-CEM leukemia
method: NCI-60 one-dose screen, 48 h (100 = growth as untreated, 0 = no growth, -100 = all killed)
reported.conditions: 10 µM unless noted
The panel holds about 83,000 compounds, 20% with a hit somewhere; the sample as a whole holds those more often.
Criterion: growth strictly under 20%. Met: class 1. Not met: class 0.

Completed entries (count: 7):
| molecule | study.target | assigned.label |
| --- | --- | --- |
| Nc1ncc(-c2ccc3ncnc(Nc4cccc(Cl)c4F)c3c2)cn1 | CCRF-CEM leukemia | class 0 |
| CCO/C=N/C1=C(C#N)C(c2ccc(F)cc2)c2sc3c(C)cccc3c2O1 (stereo not drawn) | CCRF-CEM leukemia | class 0 |
| CS(=O)(=O)c1ncc(-c2ccccc2)cn1 | CCRF-CEM leukemia | class 0 |
| CCc1nn2c(C)cc(C)nc2c1Cc1ccc(/C=C/CN2CCN(CCOCCOCCN3CCN(C/C=C/c4ccc(Cc5c(CC)nn6c(C)cc(C)nc56)cc4)CC3)CC2)cc1 | CCRF-CEM leukemia | class 1 |
| NC(N)=Nc1ccc(Oc2cccc(NC(N)=Nc3ccc(Br)c(C(F)(F)F)c3)c2)cc1 | CCRF-CEM leukemia | class 0 |
| CC1(C)CC[C@]2(C(=O)N3CCOCC3)CC[C@]3(C)C(=CC[C@@H]4[C@@]5(C)C/C(=C/c6ccccn6)C(=O)C(C)(C)[C@@H]5CC[C@]43C)[C@@H]2C1 | CCRF-CEM leukemia | class 0 |
| O=C1[C@H]2Cc3c([nH]c4ccccc34)[C@@H](c3ccc(Br)cc3)N2C(=O)CN1C1CCN(CC2CCCCC2)CC1 | CCRF-CEM leukemia | class 1 |

// switching to the query molecule
Decide: growth of CC[C@@H](CO)Nc1ccc2ncc(C#Cc3cncc(C(=O)Nc4ccc(CN5CCN(C)CC5)c(C(F)(F)F)c4)c3)n2n1 strictly below 20%?
class 1

###

Would you kindly list growth for each of these molecules?
Tested on: OVCAR-5 ovarian
method: NCI-60 one-dose screen, 48 h (100 = growth as untreated, 0 = no growth, -100 = all killed)
reported.conditions: 10 µM unless noted
The panel holds about 83,000 compounds, 20% with a hit somewhere; the sample as a whole holds those more often. Activity calls are given as the source filed them. Rule for the calls: active = growth percent below 10; inactive = the rest.

Worked examples, 4 molecules total:
| molecule | growth |
| --- | --- |
| O=C(Nc1ccc(N=Cc2c(O)[nH]c3ccccc23)cc1)Nc1nccs1 | 60.4% (inactive) |
| COc1cc2oc(-c3cccc(NC(=O)c4cc(N)ccc4Cl)c3)cc(=O)c2c(OC)c1OC | 109% (inactive) |
| COc1ccc2c(c1)c(CC(=O)[Se]CC#N)c(C)n2C(=O)c1ccc(Cl)cc1 | -13.6% (active) |
| O=C(CCC(=O)N1CCOCC1)OCCCCCCSc1ccc([N+](=O)[O-])c2nonc12 | -20.1% (active) |

Give growth for each listed item.
1. C=CCn1c(SCC(=O)Nc2ccc(C(=O)/C=C/c3ccc(C)cc3)cc2)nnc1-c1c[nH]c2ccccc12
2. NC(N)=Nc1ccc(Oc2cccc(NC(N)=Nc3ccc(I)cc3F)c2)cn1
3. O=C(NNc1nc2cc(F)ccc2n2c(CO)ccc12)c1cnccn1
4. Clc1nc2ccccc2nc1-c1nnc(C2CCCCC2)o1
5. Cn1ccnc1C(=O)/C=C/c1ccc(CNC(=O)c2ccc(S(F)(F)(F)(F)F)cc2)cc1
6. CCOC(=O)C1=NNC(c2ccc(Cl)cc2)C1C(=O)N1C(=S)NC(=O)C1CC(C)C (stereo not given)

1: 99.6% (inactive); 2: 49% (inactive); 3: 36.4% (inactive); 4: 107% (inactive); 5: 22.4% (inactive); 6: 101% (inactive)

###

System: SK-MEL-28 melanoma
method: NCI-60 one-dose screen, 48 h (100 = growth as untreated, 0 = no growth, -100 = all killed)
reported.conditions: 10 µM unless noted
The panel holds about 83,000 compounds, 20% with a hit somewhere; the sample as a whole holds those more often.
Classify by measured growth: Satisfied if it is equal to or exceeds 40%, Not satisfied if it is smaller.

| molecule | study.target | assigned.label |
| --- | --- | --- |
| CC1(C)CC[C@]2(C(=O)N3CCOCC3)CC[C@]3(C)C(=CC[C@@H]4[C@@]5(C)C/C(=C/c6ccccn6)C(=O)C(C)(C)[C@@H]5CC[C@]43C)[C@@H]2C1 | SK-MEL-28 melanoma | Satisfied |
| C=C(C)[C@@H]1CC[C@]2(COCCCNCCC#N)CC[C@]3(C)[C@H](CC[C@@H]4[C@@]5(C)CC[C@H](OCCCNCCC#N)C(C)(C)[C@@H]5CC[C@]43C)[C@@H]12 | SK-MEL-28 melanoma | Satisfied |
| COc1ccc2c(c1)Oc1nc(N)c(C#N)c(N)c1C2Sc1ccc(C)cc1 (configuration not stated) | SK-MEL-28 melanoma | Not satisfied |
| COc1cccc(/C=C(/C)c2ccc3cccc(OC)c3[o+]2)c1O | SK-MEL-28 melanoma | Satisfied |
| CCN(CC)c1cn(-c2ccc(S(N)(=O)=O)cc2)nn1 | SK-MEL-28 melanoma | Satisfied |
| Cc1cc2ncc(-c3cc4ccccc4c(N4CCN(C)CC4)n3)nc2cc1C | SK-MEL-28 melanoma | Not satisfied |
| C=CC(=O)N1CCC=C(c2cc3c(N[C@H](C)c4ccccc4)ncnc3[nH]2)C1 | SK-MEL-28 melanoma | Satisfied |
| C=C(C=O)[C@@H]1CC[C@]2(C)[C@H](CC=C3[C@H]4[C@@H](C)[C@H](C)CC[C@]4(C(=O)OC)CC[C@]32C)[C@@]1(C)CCC#N | SK-MEL-28 melanoma | Not satisfied |

For this molecule, is measured growth 40% or higher? CS(=O)(=O)c1ncc(-c2ccccc2)cn1
Satisfied

Data credit: PubChem BioAssay (NCI)
